Ref: paper PMC5814841

Listing: pKd of selected binders
Target: T1, hpTEN (Hansenula polymorpha (Ogataea …, UniProt R4IT35 1-159))
T1 sequence: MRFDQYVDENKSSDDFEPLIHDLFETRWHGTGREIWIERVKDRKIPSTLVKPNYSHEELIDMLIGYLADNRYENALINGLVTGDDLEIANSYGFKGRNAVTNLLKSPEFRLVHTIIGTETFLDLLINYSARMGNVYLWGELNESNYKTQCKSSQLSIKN
Experiment: MST
pKd field: float, defined as -log10 of concentration (mol/L).

The cases that follow already have their pKd on record.
binder	pKd
GTGGCGGGGTGGCG (ssDNA) [FAM-ssDNA E2]	3.00
FAM-E4 heteroduplex (DNA:RNA) DNA: GTGGCGGGGTGGCG ?: CGCCACCCCGCCAC	3.05

Consider the record given below.
Please report pKd for the following binder: FAM-E8 fork (DNA:RNA) DNA: CTGTTTCGGGTGGC RNA: GCCACCCUUCGUCA
3.40
